Examples of compounds with documented PRE Application ECHCG, percentage damage on five-point scale follow.
# Tested on: Echinochloa crus-galh (ECHCG)
# assaySummary: Pre-emergence herbicidal glasshouse test (Table B1)
# Format: in vivo
# assaySetup: applied at 125 g/ha, evaluated after 13 days
# Method: Seeds of a variety of test species are sown in standard soil in pots (Lolium perenne (LOLPE), Amaranthus retoflexus (AMARE), Abutilon theophrasti (ABUTH), Setaria faberi (SETFA), Echinochloa crus-galh (ECHCG), Ipomoea hederacea (IPOHE)). […] After 13 days for pre and post-emergence, the test is evaluated for the percentage damage caused to the plant. […]

Worked examples, 6 compounds total:
Cn1nnnc1NC(=O)c1ccc(OC(F)F)c(NC(=O)c2ncccc2F)c1Cl [Compound 1.100] | 1 (1=0-19%)
CCC(=O)Nc1c(OC(F)(F)F)ccc(C(=O)Nc2nnnn2C)c1Cl [Compound 1.007] | 5 (5=80-100%)
Cn1nnnc1NC(=O)c1ccc(OC(F)F)c(NC(=O)c2ccc(C(F)(F)F)cn2)c1Cl [Compound 1.084] | 1 (1=0-19%)
Cn1nnnc1NC(=O)c1ccc(OC(F)F)c(NC(=O)c2ccccn2)c1Cl [Compound 1.108] | 2 (2=20-39%)
CCOC(C)C(=O)Nc1c(OC(F)(F)F)ccc(C(=O)Nc2nnnn2CC)c1Cl (stereo not drawn) [Compound 1.073] | 5 (5=80-100%)
CCC(=O)Nc1c(OC(F)F)ccc(C(=O)Nc2nnnn2C)c1C(F)(F)F [Compound 1.096] | 1 (1=0-19%)

Please respond with reported PRE Application ECHCG, percentage damage on five-point scale (system Echinochloa crus-galh (ECHCG)) for CCC(=O)N(C)c1c(OC(F)F)ccc(C(=O)Nc2nnnn2C)c1Cl [Compound 1.024] .
4 (4=60-79%)

Write down measured PRE Application ECHCG, percentage damage on five-point scale (Echinochloa crus-galh (ECHCG)) for this compound. COc1ccccc1C(=O)Nc1c(OC(F)(F)F)ccc(C(=O)Nc2nnnn2C)c1Cl [Compound 1.056]
1 (1=0-19%)

# lookup: Echinochloa crus-galh (ECHCG) PRE Application ECHCG, percentage damage on five-point scale, key = CCn1nnnc1NC(=O)c1ccc(OC(F)(F)F)c(NC(=O)C(C)C)c1Cl [Compound 1.118]
5 (5=80-100%)

Determine reported PRE Application ECHCG, percentage damage on five-point scale for Cn1nnnc1NC(=O)c1ccc(OC(F)F)c(NC(=O)c2cc(Cl)sc2Cl)c1Cl [Compound 1.041] ; test system: Echinochloa crus-galh (ECHCG).
3 (3=40-59%)

Given CC(C)C(=O)Nc1c(OC(F)F)ccc(C(=O)Nc2nnnn2C)c1Cl [Compound 1.020] , report its PRE Application ECHCG, percentage damage on five-point scale on Echinochloa crus-galh (ECHCG).
5 (5=80-100%)

Fetch value of PRE Application ECHCG, percentage damage on five-point scale on Echinochloa crus-galh (ECHCG) for CCOCCC(=O)Nc1c(OC(F)(F)F)ccc(C(=O)Nc2nnnn2C)c1Cl [Compound 1.057] .
5 (5=80-100%)

With Echinochloa crus-galh (ECHCG) as the test system, provide measured PRE Application ECHCG, percentage damage on five-point scale for this compound: COC(C)C(=O)Nc1c(OC(F)(F)F)ccc(C(=O)Nc2nnnn2C)c1Cl (stereo not drawn) [Compound 1.063]
5 (5=80-100%)

Give Echinochloa crus-galh (ECHCG) PRE Application ECHCG, percentage damage on five-point scale for the following compound: CCCOCC(=O)Nc1c(OC(F)(F)F)ccc(C(=O)Nc2nnnn2C)c1Cl [Compound 1.062]
2 (2=20-39%)

State PRE Application ECHCG, percentage damage on five-point scale on Echinochloa crus-galh (ECHCG). Entry: Cn1nnnc1NC(=O)c1ccc(OC(F)(F)F)c(NC(=O)C2(F)CC2)c1Cl [Compound 1.054]
5 (5=80-100%)

// fetch PRE Application ECHCG, percentage damage on five-point scale for CCn1nnnc1NC(=O)c1ccc(OC(F)(F)F)c(NC(=O)C2(C)CC2)c1Cl [Compound 1.075] ; system: Echinochloa crus-galh (ECHCG)
5 (5=80-100%)

Give PRE Application ECHCG, percentage damage on five-point scale for CCn1nnnc1NC(=O)c1ccc(OC(F)(F)F)c(NC(=O)COC(C)C)c1Cl [Compound 1.072] tested on Echinochloa crus-galh (ECHCG).
5 (5=80-100%)

Tell me PRE Application ECHCG, percentage damage on five-point scale of COc1ccc(C(=O)Nc2c(OC(F)F)ccc(C(=O)Nc3nnnn3C)c2Cl)cc1 [Compound 1.101] when tested on Echinochloa crus-galh (ECHCG).
1 (1=0-19%)

----------
As shown below, each of these molecules has a reported PRE Application AMARE, percentage damage on five-point scale value.
# System: Amaranthus retoflexus (AMARE)
# assaySummary: Pre-emergence herbicidal glasshouse test (Table B1)
# Format: in vivo
# assaySetup: applied at 125 g/ha, evaluated after 13 days

Before answering, review these 5 worked examples.
CC(C)OCC(=O)Nc1c(OC(F)(F)F)ccc(C(=O)Nc2nnnn2C)c1Cl | 5 (5=80-100%)
CCC(COC)C(=O)Nc1c(OC(F)(F)F)ccc(C(=O)Nc2nnnn2CC)c1Cl (centres unmarked) | 5 (5=80-100%)
Cc1c(C(F)F)c(C(=O)Nc2c(OC(F)F)ccc(C(=O)Nc3nnnn3C)c2Cl)nn1C | 5 (5=80-100%)
CCn1nnnc1NC(=O)c1ccc(OC(F)(F)F)c(NC(=O)C(C)C)c1Cl | 4 (4=60-79%)
Cn1nnnc1NC(=O)c1ccc(OC(F)F)c(NC(=O)c2cc(Cl)ccn2)c1Cl | 5 (5=80-100%)

Query PRE Application AMARE, percentage damage on five-point scale for `COc1cccc(C(=O)Nc2c(OC(F)F)ccc(C(=O)Nc3nnnn3C)c2Cl)n1`
4 (4=60-79%)

Indicate the recorded PRE Application AMARE, percentage damage on five-point scale value for this molecule: `Cc1cccnc1C(=O)Nc1c(OC(F)F)ccc(C(=O)Nc2nnnn2C)c1Cl`
5 (5=80-100%)

Fill in reported PRE Application AMARE, percentage damage on five-point scale for this entry: `CCC(=O)Nc1c(OC(F)(F)F)ccc(C(=O)Nc2nnnn2CC)c1C`
5 (5=80-100%)

----------
# System: Abutilon theophrasti (ABUTH)
# assaySummary: Post-emergence herbicidal glasshouse test (Table B1)
# Format: in vivo
# assaySetup: applied at 125 g/ha, evaluated after 13 days
# Experimental: Seeds of a variety of test species are sown in standard soil in pots (Lolium perenne (LOLPE), Amaranthus retoflexus (AMARE), Abutilon theophrasti (ABUTH), Setaria faberi (SETFA), Echinochloa crus-galh (ECHCG), Ipomoea hederacea (IPOHE)). […] After 13 days for pre and post-emergence, the test is evaluated for the percentage damage caused to the plant. […]
Property: POST Application ABUTH, percentage damage on five-point scale; scope: individual compounds

Observe how each entry below is paired with its result.
CC(=O)Nc1c(OC(F)F)ccc(C(=O)Nc2nnnn2C)c1Cl | 4 (4=60-79%)
CCn1nnnc1NC(=O)c1ccc(OC(F)(F)F)c(NC(=O)C(C)C)c1Cl | 4 (4=60-79%)

Give recorded POST Application ABUTH, percentage damage on five-point scale. `Cn1nnnc1NC(=O)c1ccc(OC(F)F)c(NC(=O)c2ncc(F)cc2F)c1Cl`
3 (3=40-59%)

Please list POST Application ABUTH, percentage damage on five-point scale recorded for the compound `Cc1cccnc1C(=O)Nc1c(OC(F)F)ccc(C(=O)Nc2nnnn2C)c1Cl`
4 (4=60-79%)

# return recorded POST Application ABUTH, percentage damage on five-point scale for entry `CCC(=O)Nc1c(OC(F)(F)F)ccc(C(=O)Nc2nnnn2C)c1C(F)(F)F`
4 (4=60-79%)

Query POST Application ABUTH, percentage damage on five-point scale for `Cn1nnnc1NC(=O)c1ccc(OC(F)F)c(NC(=O)c2cccc(Cl)n2)c1Cl`
4 (4=60-79%)

Identify measured POST Application ABUTH, percentage damage on five-point scale corresponding to `Cn1nnnc1NC(=O)c1ccc(OC(F)F)c(NC(=O)c2ncccc2F)c1Cl`
4 (4=60-79%)

----------
# System: Amaranthus retoflexus (AMARE)
# assaySummary: Pre-emergence herbicidal glasshouse test (Table B1)
# Type: in vivo
# assaySetup: applied at 125 g/ha, evaluated after 13 days
# reported PRE Application AMARE, percentage damage on five-point scale; entries follow

Previously resolved entries follow.
CCOC(C)C(=O)Nc1c(OC(F)(F)F)ccc(C(=O)Nc2nnnn2C)c1Cl (stereo not drawn) | 5 (5=80-100%)
CCC(=O)Nc1c(OC(F)(F)F)ccc(C(=O)Nc2nnnn2C)c1Cl | 5 (5=80-100%)
CCC(=O)Nc1c(OC(F)(F)F)ccc(C(=O)Nc2nnnn2C)c1C(F)(F)F | 5 (5=80-100%)
CC(=O)Nc1c(OC(F)(F)C(F)F)ccc(C(=O)Nc2nnnn2C)c1Cl | 5 (5=80-100%)
CCOCCC(=O)Nc1c(OC(F)(F)F)ccc(C(=O)Nc2nnnn2C)c1Cl | 5 (5=80-100%)
Cn1nnnc1NC(=O)c1ccc(OC(F)F)c(NC(=O)c2cccc(Cl)n2)c1Cl | 5 (5=80-100%)
CCn1nnnc1NC(=O)c1ccc(OC(F)(F)F)c(NC(=O)CC(F)(F)F)c1Cl | 5 (5=80-100%)
Cn1nnnc1NC(=O)c1ccc(OC(F)F)c(NC(=O)c2ncccc2F)c1Cl | 5 (5=80-100%)
CCn1nnnc1NC(=O)c1ccc(OC(F)F)c(NC(=O)c2cc(OC)ccn2)c1Cl | 4 (4=60-79%)
CCC(=O)N(C)c1c(OC(F)F)ccc(C(=O)Nc2nnnn2C)c1Cl | 5 (5=80-100%)

Query PRE Application AMARE, percentage damage on five-point scale for `CCC(=O)Nc1c(OC(F)F)ccc(C(=O)Nc2nnnn2C)c1C(F)(F)F`
4 (4=60-79%)

Using the record for `CCC(=O)Nc1c(OC(F)(F)F)ccc(C(=O)Nc2nnnn2C)c1C` , state its measured PRE Application AMARE, percentage damage on five-point scale.
5 (5=80-100%)

Provide measured PRE Application AMARE, percentage damage on five-point scale value, entry: `CC(=O)Nc1c(OC(F)F)ccc(C(=O)Nc2nnnn2C)c1Cl`
5 (5=80-100%)

Answer with the recorded PRE Application AMARE, percentage damage on five-point scale for the compound listed here: `Cn1nnnc1NC(=O)c1ccc(OC(F)F)c(NC(=O)c2ncc(C(F)(F)F)cc2Cl)c1Cl`
5 (5=80-100%)

Using the record for `Cn1nnnc1NC(=O)c1ccc(OC(F)F)c(NC(=O)CC2CC2)c1Cl` , state its measured PRE Application AMARE, percentage damage on five-point scale.
5 (5=80-100%)
